From: paper PMC7868722

# EXPERIMENTAL_TARGET: human alpha-thrombin (plasma) (Homo sapiens, UniProt P00734;P00734 328-363;364-622)
# EXPERIMENT_SUMMARY: MST
Kd strictly less than 50 nM = Condition met. Otherwise Condition not met.

Example entries and their recorded answers appear below.
BINDER	ASSIGNED_CATEGORY
GGTTGGTGTGGTTGG (structured_DNA, T3: N3-aminoalkyl-dT nicotinoyl amide) [3Nic]	Condition met
GGTTGGTGTGGTTGG (structured_DNA, T12: N3-carboxymethyl-dT amide with L-leucine) [12Leu]	Condition not met
GGTTGGTGTGGTTGG (structured_DNA, T12: N3-carboxymethyl-dT amide) [12Amide]	Condition met
GGTTGGTGTGGTTGG (structured_DNA, T12: N3-propargyl-dT clicked to 1-beta-D-lactopyranosyl azide) [12L]	Condition met
GGTTGGTGTGGTTGG (structured_DNA, T3: N3-aminoalkyl-dT p-nitrobenzoyl amide) [3NB]	Condition not met
GGTTGGTGTGGTTGG (structured_DNA, T3: N3-propargyl-dT clicked to 1-beta-D-lactopyranosyl azide) [3L]	Condition met
GGTTGGTGTGGTTGG (structured_DNA, T3: N3-carboxymethyl-dT amide) [3Amide]	Condition met
GGTTGGTGTGGTTGG (structured_DNA, T3: N3-carboxymethyl-dT amide with L-serine) [3Ser]	Condition met

[Q] Kd strictly < 50 nM for this binder? GGTTGGTGTGGTTGG (structured_DNA, T3: N3-propargyl-dT clicked to 1-beta-D-glucopyranosyl azide (printed glycopyranosyl)) [3G]
[A] Condition met

[Q] Kd strictly < 50 nM for this binder? GGTTGGTGTGGTTGG (structured_DNA, T12: N3-carboxymethyl-dT amide with L-tryptophan) [12Trp]
[A] Condition not met

[Q] Kd strictly < 50 nM for this binder? GGTTGGTGTGGTTGG (structured_DNA, T3: N3-carboxymethyl-dT amide with L-phenylalanine) [3Phe]
[A] Condition met

[Q] Kd strictly < 50 nM for this binder? GGTTGGTGTGGTTGG (structured_DNA, T12: N3-carboxymethyl-dT amide with L-serine) [12Ser]
[A] Condition not met

[Q] Kd strictly < 50 nM for this binder? GGTTGGTGTGGTTGG (structured_DNA) [TBA (HD1)]
[A] Condition met

[Q] Kd strictly < 50 nM for this binder? GGTTGGTGTGGTTGG (structured_DNA, T3: N3-carboxymethyl-dT amide with L-leucine) [3Leu]
[A] Condition met
